Assay: Phase 1a single ascending dose study: UV-4 plasma concentrations and PK parameters (LC-MS/MS, noncompartmental)
Assay type: in vivo
Settings: both sexes, human, plasma, po, 3 mg, 3 mg single oral dose; Ar Mean; read-out: Cmax

Query smiles | Cmax, ng/mL
COCCCCCCCCCN1C[C@H](O)[C@@H](O)[C@H](O)[C@H]1CO | 22.4

---

Assay: Phase 1a single ascending dose study: UV-4 plasma concentrations and PK parameters (LC-MS/MS, noncompartmental)
Type: in vivo
Details: both sexes, human, plasma, po, 30 mg, 30 mg single oral dose; Ar Mean; read-out: AUC(0-inf)
Readout kind: AUC(0-inf) (ng·h/mL)

Query smiles | Output unit | Experimental value
COCCCCCCCCCN1C[C@H](O)[C@@H](O)[C@H](O)[C@H]1CO | ng·h/mL | 1260

This collection of values is drawn from paper PMC9387934.
